# Tested On: KRAS G12D-cRAF (Homo sapiens, UniProt P01116, G12D)
# Construct: expressed in transfected cells
# Sequence (P01116 1-188 isoform P01116-2 G12D): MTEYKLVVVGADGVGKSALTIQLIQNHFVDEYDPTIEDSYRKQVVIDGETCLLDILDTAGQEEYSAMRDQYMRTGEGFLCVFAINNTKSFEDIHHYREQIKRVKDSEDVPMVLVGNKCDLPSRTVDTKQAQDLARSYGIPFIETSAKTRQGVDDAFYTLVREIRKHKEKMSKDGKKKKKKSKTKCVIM
# Assay Protocol: Cellular KRAS G12D-cRAF Binding Inhibition Assay (NanoBRET, AD293 stable cells)
# Format: cell-based
# Condition: 3 h incubation, read-out: NanoBRET KRAS G12D
pIC50: −log10 of the molar value.
Respond with TRUE for pIC50 values of 8 and above, FALSE for values below.

Illustrative cases are given below, each with its answer.
{"Compound": "CC1OCCCn2c(c3c4cc(ccc42)-c2csc(n2)CC(NC(=O)C2CC2C(F)F)C(=O)N2CCCC(N2)C(=O)OCC(C)(C)C3)-c2cc(N3CC(N4CCOCC4)C3)cnc21 (centres unmarked)", "Class Assignment": "TRUE"}
{"Compound": "CC1OCCCn2c(c3c4cc(ccc42)-c2csc(n2)CC(NC(=O)C2C(C)C2C)C(=O)N2CCCC(N2)C(=O)OCC(C)(C)C3)-c2cc(OCCN3CCOCC3)cnc21 (centres unmarked)", "Class Assignment": "TRUE"}
{"Compound": "CC1OCCCn2c(c3c4cc(ccc42)-c2csc(n2)CC(NC(=O)C2CC2C(F)F)C(=O)N2CCCC(N2)C(=O)OCC(C)(C)C3)-c2cc(N3CCC(F)(F)CC3)cnc21 (centres unmarked)", "Class Assignment": "FALSE"}

# next compound below
Q) Item CCN1CCN(c2cnc3c(c2)-c2c4c5cc(ccc5n2CCCOC3C)-c2csc(n2)CC(NC(=O)C23CC(C)(C2)C3)C(=O)N2CCCC(N2)C(=O)OCC(C)(C)C4)CC1 (centres unmarked) with pIC50 of 8 or above?
A) TRUE

These measurements were taken from patent EP4800018A1.
